EC50 values by entry
biological target: rat DOR (C6-DOR) (Rattus norvegicus, UniProt P33533); test: Stimulation of [35S]-GTPγS binding, C6-DOR membranes
Form entry: enter the amount, then its unit.

Here are 3 molecules together with their reported answers.
[
  {
    "given.smiles": "Cc1cc(O)cc(C)c1C[C@H](N)C(=O)N[C@@H]1CCNc2ccc(Cc3cccc(O)c3)cc21",
    "EC50": "140 nM"
  },
  {
    "given.smiles": "Cc1cc(O)cc(C)c1C[C@H](N)C(=O)N[C@@H]1CCNc2ccc(Cc3ccccc3O)cc21",
    "EC50": "1500 nM"
  },
  {
    "given.smiles": "COc1ccccc1Cc1ccc2c(c1)[C@H](NC(=O)[C@@H](N)Cc1c(C)cc(O)cc1C)CCN2",
    "EC50": "130 nM"
  }
]

[in] So what's the measured EC50 for this one? `COc1cccc(Cc2ccc3c(c2)[C@H](NC(=O)[C@@H](N)Cc2c(C)cc(O)cc2C)CCN3)c1`
[out] 230 nM

----------
biological target: UniProt P41145; test: [3H]-diprenorphine competitive displacement binding, CHO-KOR membranes
Recorded Ki determines the label; the label ranges are low end (below 0.03 µM), middle (0.03 µM to below 0.05 µM), high end (0.05 µM or more)

[in] Dear colleague, I would appreciate it if you could identify the bin for COc1ccc(Cc2ccc3c(c2)[C@H](NC(=O)[C@@H](N)Cc2c(C)cc(O)cc2C)CCN3)cc1 [Compound 4c] and reply at your convenience.
[out] high end

[in] Dear colleague, I would appreciate it if you could identify the bin for COc1cccc(Cc2ccc3c(c2)[C@H](NC(=O)[C@@H](N)Cc2c(C)cc(O)cc2C)CCN3)c1 [Compound 4b] and reply at your convenience.
[out] low end

----------
# Ki measurements, system: human KOR (CHO-KOR) (Homo sapiens, UniProt P41145)
Return type: number; implicit unit nM.

[
  {
    "molecule": "Cc1cc(O)cc(C)c1C[C@H](N)C(=O)N[C@@H]1CCNc2ccc(Cc3ccccc3O)cc21",
    "metric.name": "Ki",
    "units.label": "nM",
    "number": 5.7
  },
  {
    "molecule": "Cc1cc(O)cc(C)c1C[C@H](N)C(=O)N[C@@H]1CCNc2ccc(Cc3cccc(O)c3)cc21",
    "metric.name": "Ki",
    "units.label": "nM",
    "number": 16
  },
  {
    "molecule": "COc1ccccc1Cc1ccc2c(c1)[C@H](NC(=O)[C@@H](N)Cc1c(C)cc(O)cc1C)CCN2",
    "metric.name": "Ki",
    "units.label": "nM",
    "number": 54
  }
]

[in] So what's the measured Ki for this one? COc1ccc2c(c1)CC(Cc1ccc3c(c1)[C@H](NC(=O)[C@@H](N)Cc1c(C)cc(O)cc1C)CCN3)C2 (some centres unmarked)
[out] 33

[in] So what's the measured Ki for this one? COc1cccc2c1CC(Cc1ccc3c(c1)[C@H](NC(=O)[C@@H](N)Cc1c(C)cc(O)cc1C)CCN3)C2 (some centres unmarked)
[out] 67

[in] So what's the measured Ki for this one? Cc1cc(O)cc(C)c1C[C@H](N)C(=O)N[C@@H]1CCNc2ccc(CC3Cc4ccc(O)cc4C3)cc21 (some centres unmarked)
[out] 41

[in] So what's the measured Ki for this one? `Cc1cc(O)cc(C)c1C[C@H](N)C(=O)N[C@@H]1CCNc2ccc(Cc3ccc(O)cc3)cc21`
[out] 420

[in] So what's the measured Ki for this one? Cc1cc(O)cc(C)c1C[C@H](N)C(=O)N[C@@H]1CCNc2ccc(CC3Cc4cccc(O)c4C3)cc21 (some centres unmarked)
[out] 0.77
